- Target: recombinant HMG1 produced in E. coli as a calmodulin binding protein (CBP) fusion (human)
- Sequence (P09429 whole entry, the tested form may be a part): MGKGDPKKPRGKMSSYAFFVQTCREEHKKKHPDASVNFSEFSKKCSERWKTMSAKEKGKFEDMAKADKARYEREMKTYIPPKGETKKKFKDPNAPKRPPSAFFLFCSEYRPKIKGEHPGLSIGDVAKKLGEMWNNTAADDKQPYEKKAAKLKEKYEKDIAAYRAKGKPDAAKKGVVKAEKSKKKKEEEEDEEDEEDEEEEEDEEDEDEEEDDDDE
- Assay summary: cell-based or functional assay

>  <Binder>
human anti-HMG1 antibody S17 (antibody, IgG1, V domains shown, full length IgG1 made from a human Fab phage clone) VH: EVQLLESGGGLVQPGGSLRLSCAASGFTFSYYDMHWVRQAPGKGLEWVSRISPSGGYTWYADSVKGRFTISRDNSKNTLYLQMNSLRAEDTAVYYCTRGRYTSGWHEYFDPWGQGTLVTVSS VL: DIQMTQSPSSLSASVGDRVTITCRASQSIGTYLNWYQQKPGTAPKVLIYAASSLQSGVPSRFSGSGSGTDFTLTISSLQPEDFSTYYCQQSYNTPRTFGQGTKLEIK

>  <IC50 NO (mg/L)>
41.7

$$$$
>  <Binder>
human anti-HMG1 antibody G20 (antibody, IgG1, V domains shown, full length IgG1 made from a human Fab phage clone) VH: EVQLLESGGGLVQPGGSLRLSCAASGFTFSWYDMFWVRQAPGKGLEWVSWISPSGGYTKYADSVKGRFTISRDNSKNTLYLQMNSLRAEDTAMYYCARSGLDYYDSSGYLDAFDIWGQGTMVTVSS VL: DIQMTQSPSSVSASVGDRVTITCRASQDVSIWLAWYQQKPGKAPKLLIFGASRLQSGVPSRFSGSRSGADFTLTIDSVQPEDFASYYCQQADSFPLTFGGGTKVEIK

>  <IC50 NO (mg/L)>
20.4

$$$$
>  <Binder>
human anti-HMG1 antibody E11 (antibody, IgG1, V domains shown, full length IgG1 made from a human Fab phage clone) VH: EVQLLESGGGLVQPGGSLRLSCAASGFTFSRYQMNWVRQAPGKGLEWVSSISPSGGHTHYADSVKGRFTISRDNSKNTLYLQMNSLRAEDTAVYYCAKDGRQGKISTVDHWGQGTLVTVSS VL: DIQMTQSPGTLSLSPGERATLSCRASQSVRSNFLAWYQQKPGQAPRLLIYGASRRASGIPDRFSGSGFGADFTLSISRLEPEDFAVYYCQQYGSSPNTFGQGSRVEIK

>  <IC50 NO (mg/L)>
101

$$$$
>  <Binder>
human anti-HMG1 antibody G16 (antibody, IgG1, V domains shown, full length IgG1 made from a human Fab phage clone) VH: EVQLLESGGGLVQPGGSLRLSCAASGFTFSWYKMTWVRQAPGKGLEWVSSISPSGGFTSYADSVKGRFTISRDNSKNTLYLQMNSLRAEDTAVYYCARDLDIRHAFDIWGQGTMVTVSS VL: DIQMTQSPGTLSLSPGESGTLSCRASESVSSRHFAWYQQKPGQAPRLLIYGASSRPTGIPDRFSGSGSGTDFTLTLSRLEPEDFAVYFCQYYGSSPYTFGGGTKVEMK

>  <IC50 NO (mg/L)>
22

$$$$
